# assay.text: small-molecule microarray binders of probe aXIP, primary screen, biochemical, NeuroSMM set, 635/667 nm fluorescence (AID 1119);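 also: probe is the protein aXip251-270 applied at 1 µg/mL to compound-printed slides; binding of probe to printed compounds measured as 667 nm fluorescence plus signal to noise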
# study.conditions: higher = more signal, called active from +8 up or from −8 down
Some molecules, each annotated with its measured composite Z-score.
reported.property: composite Z-score

{"line.notation": "C=CCNC(=O)[C@@H]1[C@H]2C(=O)O[C@H](c3ccccc3)[C@H](c3ccccc3)N2[C@H](c2ccccc2OCCO)[C@@]12C(=O)N(C(=O)OCCOC)c1ccc(C#CCCO)cc12", "reported.result": -0.0086}
{"line.notation": "COC(=O)c1ccc([C@H](NC(=O)c2ccccc2)[C@]2(C)C[C@H]2C2CCCCC2)cc1", "reported.result": 0.293}
{"line.notation": "CCCCC(=C=CC[C@@H](O)c1cccc(OCCO)c1)C[C@@H](O)COCc1ccccc1", "reported.result": 0.196}
{"line.notation": "CC(C)CNC(=O)[C@@]1(C)c2ccccc2C(=O)N(Cc2cc(F)cc(C(F)(F)F)c2)[C@H]1c1ccc(CO)cc1", "reported.result": -0.17}
{"line.notation": "COCCOC(=O)N1C(=O)[C@@]2(c3cc(C#CCC(C(=O)OC)C(=O)OC)ccc31)[C@H](C(=O)N1CCCCCCC1)[C@H]1C(=O)O[C@H](c3ccccc3)[C@H](c3ccccc3)N1[C@@H]2c1ccccc1OCCO", "reported.result": 0.269}
{"line.notation": "CCOC(=O)C[C@H]1[C@H](OC(=O)c2ccc(-c3ccccc3)cc2)[C@@H](NC(=O)CC(C)C)c2cc(OCCCO)ccc2N1C(=O)Cc1ccc(OC)cc1", "reported.result": -0.244}
{"line.notation": "CCCC[C@@H]1C[C@H]1[C@@H](NC(=O)Cc1ccccc1)c1ccc(Cl)cc1", "reported.result": 0.491}

Entry source: PubChem BioAssay
